tgt: CynoCD100-HEK293 (cynomolgus monkey)
experiment.summary: FACS
measurement.name: EC50 (nM)
Response body: numeric value in nM, unit text excluded.

*Q* I'd like to know its EC50. The binder in question is Pepinemab (antibody, V domains shown) VH: QVQLVQSGAEVKKPGSSVKVSCKASGYSFSDYYMHWVRQAPGQGLEWMGQINPTTGGASYNQKFKGKATITVDKSTSTAYMELSSLRSEDTAVYYCARYYYGRHFDVWGQGTTVTVSS VL: DIVMTQSPDSLAVSLGERATINCKASQSVDYDGDSYMNWYQQKPGQPPKLLIYAASNLESGVPDRFSGSGSGTDFTLTISSLQAEDVAVYYCQQSNEDPYTFGQGTKLEIK
*A* 0.132

# context switch: different binder, same EC50
*Q* Would you kindly share the measured EC50 for A9-VHH3 (antibody, V domains shown) VH: QVQLVESGGGLVQAGGSLRLSCAASGFSLDYYAIGWFRQAPGKGLEEVSCISSSGGSTDYADSVKGRFTISRAYAKVYLQMNSLRAEDTAVYYCAAGVSGSVCPPLIGAYWGQGTLVTVSS ?
*A* 0.835
